Molecular target: TAO2 (h) (Homo sapiens)
Sequence (Q9UL54 1-1235): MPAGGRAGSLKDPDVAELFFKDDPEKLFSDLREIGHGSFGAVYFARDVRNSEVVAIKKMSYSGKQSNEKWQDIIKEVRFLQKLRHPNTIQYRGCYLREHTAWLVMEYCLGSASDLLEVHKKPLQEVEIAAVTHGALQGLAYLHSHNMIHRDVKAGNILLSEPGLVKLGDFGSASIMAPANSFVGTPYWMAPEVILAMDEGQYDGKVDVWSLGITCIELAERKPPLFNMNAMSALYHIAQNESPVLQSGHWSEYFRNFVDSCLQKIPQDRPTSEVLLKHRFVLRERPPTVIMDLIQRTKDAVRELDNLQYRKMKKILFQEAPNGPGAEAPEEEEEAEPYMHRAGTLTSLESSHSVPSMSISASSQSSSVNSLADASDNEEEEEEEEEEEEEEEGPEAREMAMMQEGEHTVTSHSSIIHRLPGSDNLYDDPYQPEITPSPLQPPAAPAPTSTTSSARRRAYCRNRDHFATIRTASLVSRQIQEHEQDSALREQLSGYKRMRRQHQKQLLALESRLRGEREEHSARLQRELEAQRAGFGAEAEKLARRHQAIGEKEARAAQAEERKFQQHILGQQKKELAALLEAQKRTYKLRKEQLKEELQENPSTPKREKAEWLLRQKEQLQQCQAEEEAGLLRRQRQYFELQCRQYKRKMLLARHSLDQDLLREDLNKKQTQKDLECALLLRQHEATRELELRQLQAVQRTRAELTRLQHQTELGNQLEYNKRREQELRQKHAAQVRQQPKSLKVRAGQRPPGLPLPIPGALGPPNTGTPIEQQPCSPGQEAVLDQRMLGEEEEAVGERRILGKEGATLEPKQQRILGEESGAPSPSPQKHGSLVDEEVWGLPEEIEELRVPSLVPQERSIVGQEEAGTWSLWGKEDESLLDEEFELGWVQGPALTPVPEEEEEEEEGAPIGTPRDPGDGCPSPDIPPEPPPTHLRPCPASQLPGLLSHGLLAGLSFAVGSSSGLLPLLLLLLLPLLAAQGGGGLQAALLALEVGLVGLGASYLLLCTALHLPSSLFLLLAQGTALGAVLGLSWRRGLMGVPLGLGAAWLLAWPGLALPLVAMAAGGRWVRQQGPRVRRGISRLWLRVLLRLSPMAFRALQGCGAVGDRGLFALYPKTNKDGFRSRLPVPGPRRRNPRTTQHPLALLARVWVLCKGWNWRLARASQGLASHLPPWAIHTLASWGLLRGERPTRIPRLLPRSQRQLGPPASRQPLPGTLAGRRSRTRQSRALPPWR
Assay: Kinase Profiling Assay
Type: biochemical
Conditions: 100 μM
Recorded % activity by entry

Sequence text	% activity, %
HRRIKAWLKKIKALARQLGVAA (Mammalian) [MMI-0500]	15
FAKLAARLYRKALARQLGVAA [MMI-0300]	70
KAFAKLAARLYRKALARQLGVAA [MMI-0400]	74
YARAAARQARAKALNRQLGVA (Mammalian) [MMI-0200]	93

###

Each entry below carries its recorded % activity.
Molecular target: Ret (h) (Homo sapiens, UniProt P07949)
Assay: Kinase Profiling Assay
Assay type: biochemical
Details: 100 μM
Quantity measured: % activity (%)

Sequence text	Readout number
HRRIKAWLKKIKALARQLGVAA (Mammalian) [MMI-0500]	174
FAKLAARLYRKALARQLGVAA [MMI-0300]	140
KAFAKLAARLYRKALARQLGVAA [MMI-0400]	145
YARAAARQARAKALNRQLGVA (Mammalian) [MMI-0200]	96
